target: human brain MIP synthase (Homo sapiens, UniProt Q9NPH2); construct: supernatant fraction obtained after sonication; from tissue; host or cells: postmortem human prefrontal cortex, 9,000 x g supernatant of sonicated homogenate; assay: Human brain MIP synthase activity in postmortem prefrontal cortex homogenate; assay type: biochemical; conditions: at concentrations 1.5 times greater than their upper therapeutic range (concentrations in Table 2)
Sequence (Q9NPH2 whole entry): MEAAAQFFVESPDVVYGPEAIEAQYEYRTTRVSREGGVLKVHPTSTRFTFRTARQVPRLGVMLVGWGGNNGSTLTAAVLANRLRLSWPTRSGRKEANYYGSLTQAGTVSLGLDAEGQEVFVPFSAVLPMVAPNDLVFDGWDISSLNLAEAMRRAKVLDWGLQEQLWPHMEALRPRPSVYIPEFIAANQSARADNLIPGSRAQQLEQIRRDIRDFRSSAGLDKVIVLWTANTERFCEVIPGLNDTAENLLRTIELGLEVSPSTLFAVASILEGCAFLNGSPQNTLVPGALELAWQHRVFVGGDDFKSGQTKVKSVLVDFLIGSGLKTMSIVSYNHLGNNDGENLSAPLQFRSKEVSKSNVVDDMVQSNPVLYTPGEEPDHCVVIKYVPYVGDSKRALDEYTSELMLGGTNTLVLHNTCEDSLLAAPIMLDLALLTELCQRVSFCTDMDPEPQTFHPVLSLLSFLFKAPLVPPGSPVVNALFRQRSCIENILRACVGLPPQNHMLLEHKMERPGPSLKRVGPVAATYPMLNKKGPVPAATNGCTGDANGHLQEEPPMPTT
VALUE_TYPE: inhibited MIP synthase activity (which of the other psychotropic drugs)

See these solved cases before continuing.
MOLECULE | OBSERVED_RESULT
CN(C)CCCN1c2ccccc2CCc2ccc(Cl)cc21 | None
NC(=O)N1c2ccccc2C=Cc2ccccc21 [carbamazepine] | None
CN(C)CCCN1c2ccccc2CCc2ccccc21 | None
CN(C)CCCN1c2ccccc2Sc2ccc(Cl)cc21 | None
O=C(CCCN1CCC(O)(c2ccc(Cl)cc2)CC1)c1ccc(F)cc1 | None

Inquiry: For the molecule O=C1NC(=O)C(c2ccccc2)(c2ccccc2)N1 , what inhibited MIP synthase activity (which of the other psychotropic drugs) is on record?
Reply text: None
